TARGET OR TEST SYSTEM: T1, metallo-beta-lactamase (beta-lactamase II, 5/B/6) (Bacillus cereus 5/B/6, UniProt P14488 SEQ:2-228)
T1 sequence: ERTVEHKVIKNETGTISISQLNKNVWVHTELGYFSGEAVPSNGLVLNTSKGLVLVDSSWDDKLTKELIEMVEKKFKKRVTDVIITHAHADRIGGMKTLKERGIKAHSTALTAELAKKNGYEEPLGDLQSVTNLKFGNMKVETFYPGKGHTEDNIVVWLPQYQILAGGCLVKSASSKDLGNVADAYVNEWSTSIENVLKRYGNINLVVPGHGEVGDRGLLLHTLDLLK
ASSAY: inhibition; noncompetitive; Ki' (enzyme-substrate-inhibitor complex) 15 nM; cephalosporin C substrate, 50 mM MOPS pH 7.0, 30 C
STUDY CONDITIONS: tags: expressed in E. coli TAP56 from pRE2/bla
MEASUREMENT TYPE: Ki

INSERT INTO assay_data (binder, experimental_result) VALUES
  ('UGGCUGCAGGGUCUGGCCCCCCGUUUGGUG (ssRNA) [30-mer RNA]', '2 nM');
